test: Drug metabolism in rat liver microsomes at 5 uM after 20 mins; type: ADME, Microsome; details: read-out: Drug metabolism
Measured parameter: metabolised at 20 min, 5 µM

INSERT INTO measurements (entry_smiles, readout_value) VALUES
  ('Cc1cc(N2CC[C@@H](N3CCC[C@@H]3C)C2)ccc1NC(=O)c1cc(F)ccc1C', '36%'),
  ('Cc1cc(N2CC[C@@H](N3CCC[C@H]3C)C2)ccc1NC(=O)c1cc(F)ccc1C', '27%'),
  ('Cc1cc(N2CC[C@H](N3CCC[C@@H]3C)C2)ccc1NC(=O)c1cc(F)ccc1C', '20%');

Enquiry: What does the data say about its metabolised at 20 min, 5 µM? Entry: Cc1cc(N2CC[C@H](N3CCC[C@H]3C)C2)ccc1NC(=O)c1cc(F)ccc1C
Return: 60%
